- experimental_system: UniProtKB P08842
- Sequence (P08842 whole entry): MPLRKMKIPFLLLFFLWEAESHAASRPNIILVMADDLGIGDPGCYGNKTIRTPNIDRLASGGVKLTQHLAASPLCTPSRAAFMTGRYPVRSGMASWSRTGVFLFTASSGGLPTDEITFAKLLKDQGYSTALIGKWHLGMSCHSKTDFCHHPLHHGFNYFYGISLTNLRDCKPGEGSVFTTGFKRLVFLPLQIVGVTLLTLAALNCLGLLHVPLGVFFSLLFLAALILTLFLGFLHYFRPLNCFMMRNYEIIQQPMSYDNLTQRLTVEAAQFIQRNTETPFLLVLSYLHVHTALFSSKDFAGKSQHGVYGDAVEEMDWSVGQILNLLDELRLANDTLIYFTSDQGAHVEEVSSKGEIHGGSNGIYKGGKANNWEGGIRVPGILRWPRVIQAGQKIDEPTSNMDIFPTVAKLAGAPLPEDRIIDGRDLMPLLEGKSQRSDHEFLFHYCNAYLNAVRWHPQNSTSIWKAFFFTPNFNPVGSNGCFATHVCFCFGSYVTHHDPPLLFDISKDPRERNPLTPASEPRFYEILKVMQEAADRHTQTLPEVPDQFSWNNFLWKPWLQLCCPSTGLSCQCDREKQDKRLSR
- assay_name: Inhibitory concentration against human steroid sulfatase expressed in CHO cells
- Format: cell-based
quantity: log10 of IC50 (log10 of the value in µM)
The common logarithm of IC50 in µM is what is listed.

{"smiles_entry": "CC(C)(C)OC(=O)N1CCC(C(=O)NS(=O)(=O)c2c(Cl)sc(Cl)c2Br)CC1", "quantity": "log10 of IC50", "quantitative_readout": -0.57}
{"smiles_entry": "O=C(Cc1ccccc1)O[C@H]1C[C@H]2CC[C@@H](C1)N2C(=O)NS(=O)(=O)c1ccc(Cl)cc1", "quantity": "log10 of IC50", "quantitative_readout": 0.80}
{"smiles_entry": "CC(C)(C)OC(=O)N1CCC(C(=O)NS(=O)(=O)c2c(Cl)cccc2Cl)CC1", "quantity": "log10 of IC50", "quantitative_readout": 1.00}

State the recorded log10 of IC50 for every item in the following list.
1. CC(C)(C)OC(=O)N1CCN(C(=O)NS(=O)(=O)c2ccc(Cl)cc2)CC1
2. CC(C)(C)OC(=O)N1CCC(C(=O)NS(=O)(=O)c2cc(Cl)cc(Cl)c2)CC1
3. CC(C)(C)OC(=O)N1CCC(C(=O)NS(=O)(=O)c2cc(C(F)(F)F)cc(C(F)(F)F)c2)CC1
4. CC(C)(C)OC(=O)N1CCC(C(=O)NS(=O)(=O)c2ccc(Cl)cc2)CC1

A)
1. 1.08
2. 0.10
3. -0.11
4. 0.99
